Biological target: full-length human PKCι (Homo sapiens)
Construct: Recombinant, full-length human PKCι expressed in Sf21 insect cells is also commercially available
Sequence (P41743 whole entry): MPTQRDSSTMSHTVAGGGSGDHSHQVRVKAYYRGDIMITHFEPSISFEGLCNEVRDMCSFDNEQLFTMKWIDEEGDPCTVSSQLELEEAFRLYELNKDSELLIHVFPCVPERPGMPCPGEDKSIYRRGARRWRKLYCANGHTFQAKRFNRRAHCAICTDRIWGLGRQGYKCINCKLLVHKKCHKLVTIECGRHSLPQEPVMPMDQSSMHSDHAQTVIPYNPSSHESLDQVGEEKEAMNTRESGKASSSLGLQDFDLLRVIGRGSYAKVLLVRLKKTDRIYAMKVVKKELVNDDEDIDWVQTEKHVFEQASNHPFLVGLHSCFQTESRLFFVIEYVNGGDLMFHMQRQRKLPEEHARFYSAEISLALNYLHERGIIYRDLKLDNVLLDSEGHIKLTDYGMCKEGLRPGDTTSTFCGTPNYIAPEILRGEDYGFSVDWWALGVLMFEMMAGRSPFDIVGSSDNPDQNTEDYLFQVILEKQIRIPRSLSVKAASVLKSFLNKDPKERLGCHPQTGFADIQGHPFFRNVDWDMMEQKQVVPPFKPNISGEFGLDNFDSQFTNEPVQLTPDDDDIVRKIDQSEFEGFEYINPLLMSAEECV
Test: PKCι IC50 IMAP fluorescence polarisation assay, full-length enzyme, 150 μM ATP
Details: read-out: IC50 in IMAP assay against full length PKCi at 150 μM ATP
Measured IC50 accompanies every entry in the list below.

{"MOLECULE": "CC1(C)CNCCC1Nc1nc(-c2ccnc(Nc3cc(F)cc(F)n3)c2)nc2cncc(C3CCC3)c12 (stereo not drawn) [Example 105]", "TEST SYSTEM": "full-length human PKCι (Homo sapiens)", "IC50": "100 to 1000 nM"}
{"MOLECULE": "FC(F)(F)c1cc2c(-c3nc(N4CC[C@@H]5CNC[C@@H]54)c4c(C5CC5)cncc4n3)ccnc2[nH]1 [Example 21]", "TEST SYSTEM": "full-length human PKCι (Homo sapiens)", "IC50": "< 100 nM"}
{"MOLECULE": "Cn1nc(Nc2cc(-c3nc(N[C@H]4CCNCC4(C)C)c4c(C5CCC5)cncc4n3)ccn2)c2ccccc21 [Example 284]", "TEST SYSTEM": "full-length human PKCι (Homo sapiens)", "IC50": "< 100 nM"}
{"MOLECULE": "OC1(c2cc3c(-c4nc(N5CCNCC5)c5c(C6CCC6)cncc5n4)ccnc3[nH]2)CCSC1 (stereo not drawn) [Example 13]", "TEST SYSTEM": "full-length human PKCι (Homo sapiens)", "IC50": "< 100 nM"}
{"MOLECULE": "CC(C)(C)c1csc(Nc2cc(-c3nc(NC4CCNCC4(C)C)c4c(C5CCC5)cncc4n3)ccn2)n1 (stereo not drawn) [Example 72]", "TEST SYSTEM": "full-length human PKCι (Homo sapiens)", "IC50": "100 to 1000 nM"}
{"MOLECULE": "CN(c1nc(-c2ccnc3[nH]c4ccccc4c23)nc2cncc(C(F)(F)F)c12)C1CC(N)C(O)C1 (stereo not drawn) [Example 220]", "TEST SYSTEM": "full-length human PKCι (Homo sapiens)", "IC50": "< 100 nM"}
{"MOLECULE": "Fc1cc(F)c(Nc2cc(-c3nc(NC45CCNCC4C5)c4c(C5CCC5)cncc4n3)ccn2)nc1F (stereo not drawn) [Example 208]", "TEST SYSTEM": "full-length human PKCι (Homo sapiens)", "IC50": "< 100 nM"}
{"MOLECULE": "CN(c1nc(-c2ccnc(Nc3ncn(-c4ccccc4)n3)c2)nc2cncc(C3CC3)c12)C1CCNCC1(C)C (racemic) [Example 234]", "TEST SYSTEM": "full-length human PKCι (Homo sapiens)", "IC50": "< 100 nM"}
{"MOLECULE": "CC1(C)CNCC[C@@H]1Nc1nc(-c2ccnc3[nH]c(-c4ccncc4)cc23)nc2cncc(C3CC3)c12 [Example 371]", "TEST SYSTEM": "full-length human PKCι (Homo sapiens)", "IC50": "< 100 nM"}
{"MOLECULE": "CN(c1nc(-c2ccnc3[nH]c4ccccc4c23)nc2cncc(C3CCC3)c12)C1CCNCC1(C)C (stereo not drawn) [Example 31]", "TEST SYSTEM": "full-length human PKCι (Homo sapiens)", "IC50": "< 100 nM"}
{"MOLECULE": "OC[C@@H]1CNCCN1c1nc(-c2ccnc3[nH]c(C(F)(F)F)cc23)nc2cncc(C3CC3)c12 [Example 4]", "TEST SYSTEM": "full-length human PKCι (Homo sapiens)", "IC50": "100 to 1000 nM"}
{"MOLECULE": "FC1CNCCC(Nc2nc(-c3ccnc4[nH]c5ccccc5c34)nc3cncc(C4CCC4)c23)C1 (stereo not drawn) [Example 232]", "TEST SYSTEM": "full-length human PKCι (Homo sapiens)", "IC50": "< 100 nM"}
{"MOLECULE": "CC1(C)CNCCC1Nc1nc(-c2ccnc(Nc3ncc(Cl)cc3F)c2)nc2cncc(C3CCC3)c12 (stereo not drawn) [Example 88]", "TEST SYSTEM": "full-length human PKCι (Homo sapiens)", "IC50": "< 100 nM"}
{"MOLECULE": "CC1(C)CNCC[C@@H]1Nc1nc(-c2ccnc(Nc3ncc(Cl)cc3F)c2)nc2cncc(C3CC3)c12 [Example 319]", "TEST SYSTEM": "full-length human PKCι (Homo sapiens)", "IC50": "< 100 nM"}
{"MOLECULE": "CC(C)c1cc(C(C)C)c(S(=O)(=O)Oc2nc(-c3ccnc4[nH]c5ccccc5c34)nc3cncc(C4CCC4)c23)c(C(C)C)c1 [Example 204]", "TEST SYSTEM": "full-length human PKCι (Homo sapiens)", "IC50": "< 100 nM"}

---

Target: full-length human PKCι (Homo sapiens)
Construct: Recombinant, full-length human PKCι expressed in Sf21 insect cells is also commercially available
Assay: PKCι IC50 IMAP fluorescence polarisation assay, full-length enzyme, 150 μM ATP
Conditions: read-out: IC50 in IMAP assay against full length PKCi at 150 μM ATP

{"COMPOUND": "Clc1cc2c(-c3nc(N4CCNCC4)c4c(C5CCC5)cncc4n3)ccnc2[nH]1", "IC50": "< 100 nM"}
{"COMPOUND": "CN(c1nc(-c2ccnc3[nH]c4ccccc4c23)nc2cncc(C3CCC3)c12)[C@@H]1CCNC[C@@]1(C)O (racemic)", "IC50": "< 100 nM"}
{"COMPOUND": "O=C(NC1CCCCC1)c1cc2c(-c3nc(N4CCNCC4)c4c(C5CC5)cncc4n3)ccnc2[nH]1", "IC50": "< 100 nM"}
{"COMPOUND": "c1ccn2nc(Nc3cc(-c4nc(N5CCC6CNCCC65)c5c(C6CC6)cncc5n4)ccn3)nc2c1 (stereo not shown)", "IC50": "1000 to 10000 nM"}

---

Target: full-length human PKCι (Homo sapiens)
Construct: Recombinant, full-length human PKCι expressed in Sf21 insect cells is also commercially available; purchased EMD Millipore; host or cells: Sf21 insect cells (baculovirus)
Test: PKCι IC50 IMAP fluorescence polarisation assay, full-length enzyme, 150 μM ATP
Assay type: biochemical
Conditions: read-out: IC50 in IMAP assay against full length PKCi at 150 μM ATP
Parameter IC50: see the listing below.

{"COMPOUND": "CN(c1nc(-c2ccnc3[nH]c4ccccc4c23)nc2cncc(C3CCC3)c12)C1CCC(N)C1 (stereo not drawn) [Example 78]", "TEST SYSTEM": "full-length human PKCι (Homo sapiens)", "IC50": "< 100 nM"}
{"COMPOUND": "Cc1cc2c(-c3nc(NC4CCNCC4(C)C)c4c(C5CC5)cncc4n3)ccnc2[nH]1 (stereo not drawn) [Example 100]", "TEST SYSTEM": "full-length human PKCι (Homo sapiens)", "IC50": "< 100 nM"}
{"COMPOUND": "CC(C)(C)c1csc(Nc2cc(-c3nc(N4CCNCC4)c4c(C5CC5)cncc4n3)ccn2)n1 [Example 52]", "TEST SYSTEM": "full-length human PKCι (Homo sapiens)", "IC50": "100 to 1000 nM"}
{"COMPOUND": "CC1(C)CNCC[C@@H]1Nc1nc(-c2cccc(Nc3ccccn3)c2)nc2cncc(C3CCC3)c12 [Example 321]", "TEST SYSTEM": "full-length human PKCι (Homo sapiens)", "IC50": "100 to 1000 nM"}
{"COMPOUND": "CC1(C)CNCC[C@@H]1Nc1nc(-c2ccnc3[nH]c(-c4cncc(F)c4)cc23)nc2cncc(C3CCC3)c12 [Example 370]", "TEST SYSTEM": "full-length human PKCι (Homo sapiens)", "IC50": "< 100 nM"}
{"COMPOUND": "Fc1cc(F)c(Nc2cc(-c3nc(N4CCC5NCCCC54)c4c(C5CCC5)cncc4n3)ccn2)nc1F (stereo not drawn) [Example 123]", "TEST SYSTEM": "full-length human PKCι (Homo sapiens)", "IC50": "< 100 nM"}
{"COMPOUND": "c1ccc(Nc2cc(-c3nc(N4CCC5NCCCC54)c4c(C5CCC5)cncc4n3)ccn2)cc1 (stereo not drawn) [Example 125]", "TEST SYSTEM": "full-length human PKCι (Homo sapiens)", "IC50": "< 100 nM"}
{"COMPOUND": "c1cncc(-c2cc3c(-c4nc(N5CCC6CNCCC65)c5c(C6CC6)cncc5n4)ccnc3[nH]2)c1 (stereo not drawn) [Example 356]", "TEST SYSTEM": "full-length human PKCι (Homo sapiens)", "IC50": "< 100 nM"}
{"COMPOUND": "Fc1ccc(Cl)c(-c2cc3c(-c4nc(N5CCOC6CNCC65)c5c(C6CC6)cncc5n4)ccnc3[nH]2)c1 (stereo not drawn) [Example 360]", "TEST SYSTEM": "full-length human PKCι (Homo sapiens)", "IC50": "< 100 nM"}
{"COMPOUND": "CNC(=O)c1cc2c(-c3nc(N4CCNCC4)c4c(C5CC5)cncc4n3)ccnc2[nH]1 [Example 79]", "TEST SYSTEM": "full-length human PKCι (Homo sapiens)", "IC50": "< 100 nM"}
{"COMPOUND": "COc1ccccc1-c1cc2c(-c3nc(N(C)C4CCNCC4(C)C)c4c(C5CC5)cncc4n3)ccnc2[nH]1 (stereo not drawn) [Example 23]", "TEST SYSTEM": "full-length human PKCι (Homo sapiens)", "IC50": "< 100 nM"}
{"COMPOUND": "C[C@@H]1CNCC[C@@H]1Nc1nc(-c2ccnc3[nH]c(C(F)(F)F)cc23)nc2cncc(C3CCC3)c12 (racemic) [Example 263]", "TEST SYSTEM": "full-length human PKCι (Homo sapiens)", "IC50": "< 100 nM"}
{"COMPOUND": "C[C@@H]1CNCC[C@H]1Nc1nc(-c2ccnc(Nc3ncccc3F)c2)nc2cncc(C3CC3)c12 (racemic) [Example 302]", "TEST SYSTEM": "full-length human PKCι (Homo sapiens)", "IC50": "< 100 nM"}
{"COMPOUND": "CN(c1nc(-c2ccnc3[nH]c(Sc4ccccc4)cc23)nc2cncc(C3CC3)c12)C1CCNCC1(C)C (stereo not drawn) [Example 29]", "TEST SYSTEM": "full-length human PKCι (Homo sapiens)", "IC50": "< 100 nM"}
{"COMPOUND": "c1ccc2c(c1)[nH]c1nccc(-c3nc(NCC4COCCN4)c4c(C5CCC5)cncc4n3)c12 (stereo not drawn) [Example 251]", "TEST SYSTEM": "full-length human PKCι (Homo sapiens)", "IC50": "1000 to 10000 nM"}
